# ASSAY_CONDITIONS: in ethanol, 298.15 K
OBSERVATION_TYPE: solubility (mole fraction)

Task item: Name the recorded solubility (mole fraction) of the item `COC(=O)NCCCCCCNC(=O)OC` in your answer.
Reply: 0.0155

---

# ASSAY_CONDITIONS: in toluene, 328.15 K
OBSERVATION_TYPE: solubility (mole fraction)

Task item: Name the recorded solubility (mole fraction) of the item `COC(=O)NCCCCCCNC(=O)OC` in your answer.
Reply: 0.0614

---

# ASSAY_CONDITIONS: in ethanol, 313.15 K
OBSERVATION_TYPE: solubility (mole fraction)
Reply with just the number.

Task item: Name the recorded solubility (mole fraction) of the item `COC(=O)NCCCCCCNC(=O)OC` in your answer.
Reply: 0.0355

---

# ASSAY_CONDITIONS: in ethyl acetate, 313.15 K
OBSERVATION_TYPE: solubility (mole fraction)
Reply with just the number.

Task item: Name the recorded solubility (mole fraction) of the item `COC(=O)NCCCCCCNC(=O)OC` in your answer.
Reply: 0.0233

---

# ASSAY_CONDITIONS: in ethanol, 300.15 K
OBSERVATION_TYPE: solubility (mole fraction)

Task item: Name the recorded solubility (mole fraction) of the item `COC(=O)NCCCCCCNC(=O)OC` in your answer.
Reply: 0.0179

---

# ASSAY_CONDITIONS: in dimethyl carbonate, 303.15 K
OBSERVATION_TYPE: solubility (mole fraction)
Reply with just the number.

Task item: Name the recorded solubility (mole fraction) of the item `COC(=O)NCCCCCCNC(=O)OC` in your answer.
Reply: 0.00839

---

# ASSAY_CONDITIONS: in dimethyl carbonate, 318.15 K
OBSERVATION_TYPE: solubility (mole fraction)
Reply with just the number.

Task item: Name the recorded solubility (mole fraction) of the item `COC(=O)NCCCCCCNC(=O)OC` in your answer.
Reply: 0.0207

---

# ASSAY_CONDITIONS: in ethanol, 308.15 K
OBSERVATION_TYPE: solubility (mole fraction)
Reply with just the number.

Task item: Name the recorded solubility (mole fraction) of the item `COC(=O)NCCCCCCNC(=O)OC` in your answer.
Reply: 0.0279

---

# ASSAY_CONDITIONS: in ethyl acetate, 298.15 K
OBSERVATION_TYPE: solubility (mole fraction)

Task item: Name the recorded solubility (mole fraction) of the item `COC(=O)NCCCCCCNC(=O)OC` in your answer.
Reply: 0.00814

---

# ASSAY_CONDITIONS: in ethanol, 328.15 K
OBSERVATION_TYPE: solubility (mole fraction)
Reply with just the number.

Task item: Name the recorded solubility (mole fraction) of the item `COC(=O)NCCCCCCNC(=O)OC` in your answer.
Reply: 0.0769

---

# ASSAY_CONDITIONS: in ethanol, 303.15 K
OBSERVATION_TYPE: solubility (mole fraction)

Task item: Name the recorded solubility (mole fraction) of the item `COC(=O)NCCCCCCNC(=O)OC` in your answer.
Reply: 0.0205

---

# ASSAY_CONDITIONS: in water, 298.15 K
OBSERVATION_TYPE: solubility (mole fraction)
Reply with just the number.

Task item: Name the recorded solubility (mole fraction) of the item `COC(=O)NCCCCCCNC(=O)OC` in your answer.
Reply: 6.21e-05

---

# ASSAY_CONDITIONS: in water, 313.15 K
OBSERVATION_TYPE: solubility (mole fraction)
Reply with just the number.

Task item: Name the recorded solubility (mole fraction) of the item `COC(=O)NCCCCCCNC(=O)OC` in your answer.
Reply: 0.000146

---

# ASSAY_CONDITIONS: in ethyl acetate, 303.15 K
OBSERVATION_TYPE: solubility (mole fraction)
Reply with just the number.

Task item: Name the recorded solubility (mole fraction) of the item `COC(=O)NCCCCCCNC(=O)OC` in your answer.
Reply: 0.0124

---

# ASSAY_CONDITIONS: in water, 333.15 K
OBSERVATION_TYPE: solubility (mole fraction)
Reply with just the number.

Task item: Name the recorded solubility (mole fraction) of the item `COC(=O)NCCCCCCNC(=O)OC` in your answer.
Reply: 0.000439

---

# ASSAY_CONDITIONS: in toluene, 318.15 K
OBSERVATION_TYPE: solubility (mole fraction)
Reply with just the number.

Task item: Name the recorded solubility (mole fraction) of the item `COC(=O)NCCCCCCNC(=O)OC` in your answer.
Reply: 0.0353

---

# ASSAY_CONDITIONS: in water, 300.15 K
OBSERVATION_TYPE: solubility (mole fraction)
Reply with just the number.

Task item: Name the recorded solubility (mole fraction) of the item `COC(=O)NCCCCCCNC(=O)OC` in your answer.
Reply: 6.92e-05

---

# ASSAY_CONDITIONS: in water, 303.15 K
OBSERVATION_TYPE: solubility (mole fraction)
Reply with just the number.

Task item: Name the recorded solubility (mole fraction) of the item `COC(=O)NCCCCCCNC(=O)OC` in your answer.
Reply: 7.91e-05

---

# ASSAY_CONDITIONS: in toluene, 323.15 K
OBSERVATION_TYPE: solubility (mole fraction)

Task item: Name the recorded solubility (mole fraction) of the item `COC(=O)NCCCCCCNC(=O)OC` in your answer.
Reply: 0.0462

---

# ASSAY_CONDITIONS: in ethyl acetate, 308.15 K
OBSERVATION_TYPE: solubility (mole fraction)
Reply with just the number.

Task item: Name the recorded solubility (mole fraction) of the item `COC(=O)NCCCCCCNC(=O)OC` in your answer.
Reply: 0.0176

---

# ASSAY_CONDITIONS: in dimethyl carbonate, 300.15 K
OBSERVATION_TYPE: solubility (mole fraction)

Task item: Name the recorded solubility (mole fraction) of the item `COC(=O)NCCCCCCNC(=O)OC` in your answer.
Reply: 0.00689

---

# ASSAY_CONDITIONS: in toluene, 303.15 K
OBSERVATION_TYPE: solubility (mole fraction)
Reply with just the number.

Task item: Name the recorded solubility (mole fraction) of the item `COC(=O)NCCCCCCNC(=O)OC` in your answer.
Reply: 0.0111

---

# ASSAY_CONDITIONS: in dimethyl carbonate, 333.15 K
OBSERVATION_TYPE: solubility (mole fraction)
Reply with just the number.

Task item: Name the recorded solubility (mole fraction) of the item `COC(=O)NCCCCCCNC(=O)OC` in your answer.
Reply: 0.042

---

# ASSAY_CONDITIONS: in toluene, 298.15 K
OBSERVATION_TYPE: solubility (mole fraction)
Reply with just the number.

Task item: Name the recorded solubility (mole fraction) of the item `COC(=O)NCCCCCCNC(=O)OC` in your answer.
Reply: 0.00731

---

# ASSAY_CONDITIONS: in toluene, 300.15 K
OBSERVATION_TYPE: solubility (mole fraction)
Reply with just the number.

Task item: Name the recorded solubility (mole fraction) of the item `COC(=O)NCCCCCCNC(=O)OC` in your answer.
Reply: 0.00912

---

# ASSAY_CONDITIONS: in ethanol, 333.15 K
OBSERVATION_TYPE: solubility (mole fraction)
Reply with just the number.

Task item: Name the recorded solubility (mole fraction) of the item `COC(=O)NCCCCCCNC(=O)OC` in your answer.
Reply: 0.0987

---

# ASSAY_CONDITIONS: in dimethyl carbonate, 323.15 K
OBSERVATION_TYPE: solubility (mole fraction)
Reply with just the number.

Task item: Name the recorded solubility (mole fraction) of the item `COC(=O)NCCCCCCNC(=O)OC` in your answer.
Reply: 0.026

---

# ASSAY_CONDITIONS: in ethyl acetate, 328.15 K
OBSERVATION_TYPE: solubility (mole fraction)

Task item: Name the recorded solubility (mole fraction) of the item `COC(=O)NCCCCCCNC(=O)OC` in your answer.
Reply: 0.0445

---

# ASSAY_CONDITIONS: in ethyl acetate, 300.15 K
OBSERVATION_TYPE: solubility (mole fraction)
Reply with just the number.

Task item: Name the recorded solubility (mole fraction) of the item `COC(=O)NCCCCCCNC(=O)OC` in your answer.
Reply: 0.00976

---

# ASSAY_CONDITIONS: in water, 308.15 K
OBSERVATION_TYPE: solubility (mole fraction)

Task item: Name the recorded solubility (mole fraction) of the item `COC(=O)NCCCCCCNC(=O)OC` in your answer.
Reply: 0.000106

---

# ASSAY_CONDITIONS: in ethanol, 323.15 K
OBSERVATION_TYPE: solubility (mole fraction)
Reply with just the number.

Task item: Name the recorded solubility (mole fraction) of the item `COC(=O)NCCCCCCNC(=O)OC` in your answer.
Reply: 0.0625

---

# ASSAY_CONDITIONS: in ethyl acetate, 318.15 K
OBSERVATION_TYPE: solubility (mole fraction)
Reply with just the number.

Task item: Name the recorded solubility (mole fraction) of the item `COC(=O)NCCCCCCNC(=O)OC` in your answer.
Reply: 0.029
